# maps each entry to its solubility (mole fraction)
ASSAY CONDITIONS: in ethanol, 308.15 K
RECORDED ENDPOINT: solubility (mole fraction)

1) CC1(C)S[C@@H]2[C@H](NC(=O)COc3ccccc3)C(=O)N2[C@H]1C(=O)[O-].[K+] 0.0029
2) Nc1cc(Cl)nnc1Cl 0.0185

###

ASSAY CONDITIONS: in ethylene glycol, 298.15 K
RECORDED ENDPOINT: solubility (mole fraction)

1. COc1cc(/C=C/C(=O)O)cc(OC)c1O 0.00586

###

ASSAY CONDITIONS: in water, 323.35 K
RECORDED ENDPOINT: solubility (mole fraction)

1. Nc1ccc(Cl)nn1 0.000556
